Values from patent US5789412A

- target-system: human 5HT1Dα receptor (Homo sapiens, UniProt P28221)
- Construct: expressed in transfected cells
- Sequence (P28221 whole entry): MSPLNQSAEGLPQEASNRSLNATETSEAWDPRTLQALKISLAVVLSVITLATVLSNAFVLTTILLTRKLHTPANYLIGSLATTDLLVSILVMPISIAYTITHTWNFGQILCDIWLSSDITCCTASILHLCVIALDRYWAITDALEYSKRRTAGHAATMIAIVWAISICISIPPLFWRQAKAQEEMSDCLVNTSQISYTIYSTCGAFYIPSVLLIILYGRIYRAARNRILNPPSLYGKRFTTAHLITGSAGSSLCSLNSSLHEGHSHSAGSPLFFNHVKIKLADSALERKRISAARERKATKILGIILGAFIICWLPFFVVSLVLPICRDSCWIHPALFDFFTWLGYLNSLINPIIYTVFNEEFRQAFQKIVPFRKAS
- test-method-notes: Binding to human 5HT1Dα receptor ([3H]-5CT displacement)
recorded-endpoint: Ki
# number then unit; no other words

Report Ki under test system human 5HT1Dα receptor (Homo sapiens, UniProt P28221) for CN1CCN(c2cccc3ccc(OC(=O)N4CCN(c5ccccc5)CC4)cc23)CC1 .
2.8 nM
